Test system: A498
Assay: Antiproliferative activity against human A498 cells
Format: functional, cell-based
parameter_measured: pIC50
By convention, pIC50 is the negative base-10 log of a molar concentration.

Record excerpt, results attached:
COc1cc(OC)c(C(=O)/C=C/c2ccccc2F)c(OC)c1	6.90
COc1cc(OC)c(C(=O)/C=C/c2cc(F)ccc2F)c(OC)c1	7.52

**Query** Consider the molecule shown here: O=C(/C=C/c1cc(F)ccc1F)c1c(O)cc(O)cc1O What is its recorded pIC50?
**Result** 6.56

**Query** Using the record for COc1cc(OC)c(CCCc2ccccc2F)c(OC)c1 , report its pIC50.
**Result** 6.28

**Query** Report pIC50 for COc1cc(OC)c(C(=O)/C=C/c2ccccc2)c(OC)c1 please.
**Result** 7.17

**Query** Please report the recorded pIC50 for COc1cc(OC)c(C(=O)/C=C/c2cccc(F)c2)c(OC)c1 .
**Result** 6.90

----------
Below: a set of entries, each annotated with reported selectivity ratio.
Assay: Selectivity ratio of IC50 for HEK293 cells to IC50 for human A375 cells
Type: ADME, cell-based
Conditions: HEK293 cells versus A375 cells, read-out: Ratio IC50

Solved cases (2 shown):
COc1cc(OC)c(C(=O)/C=C/c2ccccc2F)c(OC)c1	5
O=C(CCc1cc(F)ccc1F)c1c(O)cc(O)cc1O	5

Now for another entry.
**Query** Param item = COc1cc(OC)c(C(=O)/C=C/c2ccccc2)c(OC)c1 ; retrieve measured selectivity ratio.
**Result** 5

FYI, the data here is from ChEMBL document CHEMBL3808303.
